Item-by-item account of Ki
target: δ-opioid receptor (Rattus norvegicus); test: Rat brain δ-opioid receptor binding assay ([3H]DPDPE)
Sequence (P33533 whole entry): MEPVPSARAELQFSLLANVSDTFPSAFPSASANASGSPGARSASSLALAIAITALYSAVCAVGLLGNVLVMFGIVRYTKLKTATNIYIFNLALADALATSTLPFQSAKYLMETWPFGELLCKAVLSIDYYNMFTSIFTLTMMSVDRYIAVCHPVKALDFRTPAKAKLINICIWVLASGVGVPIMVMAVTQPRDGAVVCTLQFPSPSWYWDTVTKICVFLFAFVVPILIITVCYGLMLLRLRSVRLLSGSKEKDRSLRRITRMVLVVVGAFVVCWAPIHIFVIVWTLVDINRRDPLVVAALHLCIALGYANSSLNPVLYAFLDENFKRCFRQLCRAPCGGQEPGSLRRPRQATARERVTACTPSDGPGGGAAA
Hi, when you answer, please include the unit after the number. Thanks!

Example results:
In [3]: df
Out[3]:
                                 itemsmiles  reportedmetric  testvalue
0  CCN1CCN(C(=Nc2cccc(Br)c2)c2ccc(C(=O)N(CC)CC)cc2)CC1              Ki    57.6 nM
1  CCCN(CCC)C(=O)c1ccc(C(=Nc2cccc(F)c2)N2CCN(CC)CC2)cc1              Ki    60.7 nM

Reported Ki for CCN1CCN(C(=Nc2cccc(F)c2)c2ccc(C(=O)OC)cc2)CC1 was 259 nM

Reported Ki for CCCN(CCC)C(=O)c1ccc(C(=Nc2cccc(Br)c2)N2CCN(CC)CC2)cc1 was 39.2 nM

---

molecular target: δ-opioid receptor (Rattus norvegicus); assay: Rat brain δ-opioid receptor binding assay ([3H]DPDPE)
Response field label takes met when Ki is strictly below 0.1 µM and not met in all other cases.

>>> df
                                 itemsmiles  labelclass
0  CCN(CC)C(=O)c1ccc(C(=Nc2ccccc2C(F)(F)F)N2CCN(CCOC)CC2)cc1         met
1  CCN(CC)C(=O)c1ccc(C(=Nc2ccccc2Cl)N2CCN(CCOC)CC2)cc1         met
2  C=CCN1CCN(C(=Nc2ccccc2)c2ccc(C(=O)N(CC)CC)cc2)CC1     not met
3  CCN1CCN(C(=Nc2cccc(F)c2)c2ccc(C(=O)N(CC)CC)cc2)CC1         met
4  CCN(CC)C(=O)c1ccc(C(=Nc2ccccc2Cl)N2CCN(CCc3ccccc3)CC2)cc1     not met

Incoming: Criterion: Ki strictly below 0.1 µM. Is it met by CCN(CC)C(=O)c1ccc(C(=Nc2ccccc2)N2CCN(CCc3cccs3)CC2)cc1 ?
Outgoing: not met

Incoming: Criterion: Ki strictly below 0.1 µM. Is it met by CCN(CC)C(=O)c1ccc(C(=Nc2ccccc2Cl)N2CCN(CCc3cccs3)CC2)cc1 ?
Outgoing: met

Incoming: Criterion: Ki strictly below 0.1 µM. Is it met by CCN1CCN(C(=Nc2ccccc2)c2ccc(C(=O)N(CC)CC)cc2)CC1 ?
Outgoing: met

Incoming: Criterion: Ki strictly below 0.1 µM. Is it met by CCN(CC)C(=O)c1ccc(C(=Nc2ccccc2C(F)(F)F)N2CCN(CCc3ccccc3)CC2)cc1 ?
Outgoing: not met

Incoming: Criterion: Ki strictly below 0.1 µM. Is it met by CCN(CC)C(=O)c1ccc(C(=Nc2ccc(Cl)cc2)N2CCN(Cc3ccccc3)CC2)cc1 ?
Outgoing: not met

Incoming: Criterion: Ki strictly below 0.1 µM. Is it met by CCN(CC)C(=O)c1ccc(C(=Nc2ccccc2)N2CCN(Cc3ccccc3)CC2)cc1 ?
Outgoing: not met

Incoming: Criterion: Ki strictly below 0.1 µM. Is it met by CCN(CC)C(=O)c1ccc(C(=Nc2ccccc2C(F)(F)F)N2CCN(Cc3ccccc3)CC2)cc1 ?
Outgoing: met

Incoming: Criterion: Ki strictly below 0.1 µM. Is it met by C=CCN1CCN(C(=Nc2ccccc2Cl)c2ccc(C(=O)N(CC)CC)cc2)CC1 ?
Outgoing: met

Incoming: Criterion: Ki strictly below 0.1 µM. Is it met by C=CCN1CCN(C(=Nc2ccccc2Cl)c2cccc(C(=O)N(CC)CC)c2)CC1 ?
Outgoing: not met

Incoming: Criterion: Ki strictly below 0.1 µM. Is it met by CCN(CC)C(=O)c1ccc(C(=Nc2ccccc2Cl)N2CCN(Cc3ccccc3)CC2)cc1 ?
Outgoing: met

Incoming: Criterion: Ki strictly below 0.1 µM. Is it met by CCN1CCN(C(=Nc2ccccc2F)c2ccc(C(=O)N(CC)CC)cc2)CC1 ?
Outgoing: not met

Incoming: Criterion: Ki strictly below 0.1 µM. Is it met by CCCN1CCN(C(=Nc2cccc(Cl)c2)c2ccc(C(=O)N(CC)CC)cc2)CC1 ?
Outgoing: not met

Incoming: Criterion: Ki strictly below 0.1 µM. Is it met by CCCN1CCN(C(=Nc2ccccc2Cl)c2ccc(C(=O)OC)cc2)CC1 ?
Outgoing: met
